meta.source: patent US8383838B2

Test System: human GK (Homo sapiens, UniProt P35557)
Sequence (P35557 1-465): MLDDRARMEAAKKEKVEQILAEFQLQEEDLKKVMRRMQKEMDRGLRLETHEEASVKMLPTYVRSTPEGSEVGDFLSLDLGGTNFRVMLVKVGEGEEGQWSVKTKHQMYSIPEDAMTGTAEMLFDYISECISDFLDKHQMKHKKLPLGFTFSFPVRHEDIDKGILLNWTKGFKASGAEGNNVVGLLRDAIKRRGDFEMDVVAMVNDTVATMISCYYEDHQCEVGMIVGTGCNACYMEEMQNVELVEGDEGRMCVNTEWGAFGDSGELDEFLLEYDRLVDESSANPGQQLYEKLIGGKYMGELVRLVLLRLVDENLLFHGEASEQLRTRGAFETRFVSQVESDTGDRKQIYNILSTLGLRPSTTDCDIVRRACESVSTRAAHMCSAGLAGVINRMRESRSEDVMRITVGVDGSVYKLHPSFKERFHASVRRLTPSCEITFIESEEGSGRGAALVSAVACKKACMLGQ
Assay Info: Glucokinase Activation Screening Assay (coupled enzyme assay with PK and LDH)
Format: biochemical
Condition Info: activation of human GK in percent of control (control incubation: 2 mM glucose, 0.91% DMSO); compound concentration not stated
Exercise: for every item that follows, state its recorded hGK % CTL.
Quick note: give the figure in % CTL, leave out the unit.

State, in one line, measured hGK % CTL of COc1ccc2c(c1)C(=O)C(C(=O)Nc1ccccn1)CCO2 (centres unmarked)
149

Name the recorded hGK % CTL of the compound listed here: O=C(Nc1nccs1)C1CCOc2ccc(Cl)cc2C1=O (centres unmarked)
121

Tell us which hGK % CTL value is on record for O=C(Nc1ccccn1)C1CCOc2ccc(Oc3ccccc3)cc2C1=O (centres unmarked)
94

Please report hGK % CTL for the following compound: "O=C(Nc1ccccn1)C1=Cc2ccccc2OCC1"
129

Consider the compound O=C(Nc1nccs1)C1CCOc2cc(Cl)c(Cl)cc2C1=O (centres unmarked) . State its measured hGK % CTL.
194

====

Assign hGK % CTL to each entry below.
Test System: human GK (Homo sapiens, UniProt P35557)
Assay Info: Glucokinase Activation Screening Assay (coupled enzyme assay with PK and LDH)
Assay type: biochemical
Condition Info: activation of human GK in percent of control (control incubation: 2 mM glucose, 0.91% DMSO); compound concentration not stated
Report the value in % CTL with no unit label.

Give me measured hGK % CTL, please, for this compound: CCc1ccc2c(c1)OCCC(C(=O)Nc1ccccn1)C2=O (stereo not shown)
291

Check the records and state hGK % CTL for O=C(Nc1ccccn1)C1CCOc2cc(Cl)ccc2C1=O (stereo not shown)
388

// Input: O=C(Nc1nccs1)C1CCOc2cc(F)ccc2C1=O (stereo not shown) . Output its hGK % CTL only.
218

Return the recorded hGK % CTL value; entry: O=C(Nc1ccccn1)C1CCOc2ccc(Cl)cc2C1=O (stereo not shown)
192

Name the recorded hGK % CTL of the item CC1(C)COc2cc(-c3ccc(F)cc3)ccc2C(=O)C1C(=O)Nc1ccccn1 (stereo not shown) in your answer.
124

Look up hGK % CTL of "O=C(Nc1nccs1)C1=Cc2ccccc2OCC1" and report it.
161

Output measured hGK % CTL for this item: CC1(C)COc2cc(Cl)c(F)cc2C(=O)C1C(=O)Nc1ccccn1 (stereo not shown)
181

Return hGK % CTL for the following compound: CCc1ccc2c(c1)OCC(C)(C)C(C(=O)Nc1ccccn1)C2=O (stereo not shown)
104

Input O=C(Nc1ccccn1)C1CCOc2ccccc2C1=O (stereo not shown) , output reported hGK % CTL.
245

Assign hGK % CTL to the following record: O=C(Nc1nccs1)C1CCOc2cc(Cl)ccc2C1=O (stereo not shown)
215
